Test summary: Plasma protein binding by rapid equilibrium dialysis, dog plasma
Assay type: in vitro ADME
Run conditions: pH 7.4; Dog plasma; 5 µM, 4 hours, 37 °C; read-out: Unbound (Fu, %)
Readout kind: fraction unbound at 4 h, 5 µM
Reply: number alone, nothing else.

Form: molecule = "CC(C)(C)CC[C@H](NCc1ccc2c(c1)COCC2)C(=O)O" ; fraction unbound at 4 h, 5 µM = 0.555

###

Test summary: Brain homogenate binding by rapid equilibrium dialysis, rat brain
Format: in vitro ADME
Run conditions: pH 7.4, 37 °C, dilution factor 5, read-out: Unbound (Fu, %)
Readout kind: fraction unbound at 4 h, 5 µM
Answer using only a numeral; do not append any unit.

Entry "CC(C)(C)CC[C@H](NCc1ccc2c(c1)COCC2)C(=O)O" — recorded fraction unbound at 4 h, 5 µM = 0.371
